The measured values listed here are drawn from ChEMBL document CHEMBL1201862.

tested on: MOLT-4; assay: NCI tumour cell line growth inhibition, 48 h
Calls of active or inactive are those of the source. No stated cut-off is given here; in the data, active = GI50 up to about 1.1 µM and inactive = higher.
Field 'call' accepts YES (active), NO (inactive)

stdin: Just curious, what result did O=c1c(C(c2ccc3ccccc3c2)c2c(O)oc3cc(O)ccc3c2=O)c(O)oc2cc(O)ccc12 get here?
stdout: NO

stdin: Just curious, what result did Cc1ccc(C)c(NC(=O)c2cc(-c3ccc([N+](=O)[O-])cc3)nc(N)n2)c1 get here?
stdout: NO

stdin: Just curious, what result did COC1=C(OC)C(=O)C(Sc2ccc3ccccc3c2)=CC1=O get here?
stdout: NO

stdin: Just curious, what result did CN(C)/C=C(\C(=O)c1ccccc1)n1nc(-c2ccccc2)cc1-c1ccccc1 get here?
stdout: NO

More entries:
stdin: Just curious, what result did Cc1nc2cc([N+](=O)[O-])ccc2c(NCCCN(C)C)c1C get here?
stdout: NO

stdin: Just curious, what result did CN(c1ccccc1)S(=O)(=O)c1ccccc1[N+](=O)[O-] get here?
stdout: NO

stdin: Just curious, what result did CN(C)CCNC1=C(Cl)C(=O)c2c(O)ccc(O)c2C1=O get here?
stdout: NO

stdin: Just curious, what result did CCOC(CBr)OC1C(=O)OCC1(C)C (configuration not stated) get here?
stdout: NO

stdin: Just curious, what result did Cc1cc2c(cc1C)[n+]([O-])c(C(=O)CC(=O)C(=O)Nc1c(C(C)C)cccc1C(C)C)c(C)[n+]2[O-] get here?
stdout: NO

stdin: Just curious, what result did O=C1C2C3C=CC(C2C(=O)N1CN1CCSCC1)C1C2C(=O)N(CN4CCSCC4)C(=O)C2C31 (configuration not stated) get here?
stdout: NO

stdin: Just curious, what result did c1ccc2c(c1)CCCc1cc3ccccc3nc1-2 get here?
stdout: NO

stdin: Just curious, what result did CC(C)(C)[Si](C)(C)OCC1CCC(n2cnc3c(NC(=O)c4ccccc4)ncnc32)O1 (configuration not stated) get here?
stdout: NO

stdin: Just curious, what result did COc1ccc(C2=C(N)c3ncccc3C2=O)cc1 get here?
stdout: NO

stdin: Just curious, what result did c1ccc(CN[C@]23C4C5CC6C7C5C2C7[C@@](NCc2ccccc2)(C64)N3Cc2ccccc2)cc1 (some centres not stated) get here?
stdout: NO

stdin: Just curious, what result did C/C(=N\NC(=S)N1CCC(N2CCCCC2)CC1)c1ccccn1 get here?
stdout: YES

stdin: Just curious, what result did O=C1c2ccccc2C(=O)N1n1c(Cc2ccccc2)n[nH]c1=O get here?
stdout: NO

stdin: Just curious, what result did CCCCCCCCCCCCCCCCCc1cccc(OCOCCOC)c1CO get here?
stdout: NO

stdin: Just curious, what result did O=c1n(CC2CO2)c(=O)n(CC2CO2)c(=O)n1CC1CO1 (configuration not stated) [TEROXIRONE] get here?
stdout: NO

stdin: Just curious, what result did CN(C(=O)c1cc2c(s1)sc1c(=O)n(C)c3ccccc3c12)c1ccccc1 get here?
stdout: NO

stdin: Just curious, what result did CCCNC1=Nc2ccccc2N(Cc2ccccc2)CC1 get here?
stdout: NO

stdin: Just curious, what result did O=c1[nH]c(=O)n(C2OC(CO)C(O)C2O)cc1OCc1ccccc1 (configuration not stated) get here?
stdout: NO

stdin: Just curious, what result did CS(=O)(=O)OCC(CCl)(CCl)CCl get here?
stdout: NO

---

Assign GI50 to each entry below.
tested on: IGROV-1; experiment: NCI tumour cell line growth inhibition, 48 h
The source made the active and inactive calls. Rule as the data show it: active = GI50 up to about 1.1 µM and inactive = higher.

The examples below pair each entry with its known result.
stdin: Which GI50 is listed for CNC(C#N)c1ccc(OC)cc1 (stereo unspecified) ?
stdout: > 100 µM (inactive)

stdin: Which GI50 is listed for CC(=O)OC1C(COC(N)=O)OC(n2c(-c3ccc(C)cc3)cc(-c3ccccc3)c(C#N)c2=O)C(OC(C)=O)C1OC(C)=O (stereo unspecified) ?
stdout: > 100 µM (inactive)

stdin: Which GI50 is listed for CN(C(=O)c1cc2c(s1)sc1c(=O)n(C)c3ccccc3c12)c1ccccc1 ?
stdout: 4.37 µM (inactive)

stdin: Which GI50 is listed for O=C(NO)c1ccc(OCc2cccc(Cl)c2)cc1 ?
stdout: 6.67 µM (inactive)

Quick batch: GI50 for everything below.
1. O=S(=O)(O)c1c(/N=N/c2c(O)ccc3ccccc23)ccc2ccccc12
2. C=CCNC(=S)N/C=C1\C(=O)Oc2ccccc2C1=O

stdout:
["79.8 µM (inactive)", "41.6 µM (inactive)"]

Quick batch: GI50 for everything below.
1. Cc1c2ccccc2c(C)n2c1nc1ccccc12
2. O=c1c2cccc3cccc(c4oc5c6cccc7cccc(c(=O)c5c14)c76)c32
3. CCOC(=O)C(C(=O)OCC)=C1C=C(c2ccccc2)c2ccccc21
4. COc1cc(C2c3[nH]c4ccc(F)cc4c3C[C@H]3COC(=O)N23)cc(OC)c1O (stereo partly specified)
5. COc1ccc(Oc2nc(C#CC(C)(C)O)nc(Oc3ccc(OC)cc3)n2)cc1

stdout:
["11.6 µM (inactive)", "16.9 µM (inactive)", "> 100 µM (inactive)", "13.2 µM (inactive)", "5.45 µM (inactive)"]
